Where do these numbers come from? They come from the supplement of paper PMC11061612.

Test system: SK-GT-2 (Gastric Carcinoma);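 also: after 72 h of two-drug dosing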
experimentSummary: Bliss excess, mean over the matrix (fraction); higher = more synergy
Would you mind telling me the reported Bliss excess of each entry?

Could you tell me Bliss excess for each of these molecules? They are listed below.
1. CC1(C)CCC(CN2CCN(c3ccc(C(=O)NS(=O)(=O)c4ccc(NCC5CCOCC5)c([N+](=O)[O-])c4)c(Oc4cnc5[nH]ccc5c4)c3)CC2)=C(c2ccc(Cl)cc2)C1 [Venetoclax] + C[C@@H](Nc1cc(F)cc(F)c1)c1cc(C(=O)N(C)C)cc2c(=O)cc(N3CCOCC3)oc12 [AZD8186] (first compound max 1 µM, 7x7, partner max 3 µM)
2. CC1(C)CCC(CN2CCN(c3ccc(C(=O)NS(=O)(=O)c4ccc(NCC5CCOCC5)c([N+](=O)[O-])c4)c(Oc4cnc5[nH]ccc5c4)c3)CC2)=C(c2ccc(Cl)cc2)C1 [Venetoclax] + C1CN(CCC1(C(=O)N[C@@H](CCO)C2=CC=C(C=C2)Cl)N)C3=NC=NC4=C3C=CN4 [Capivasertib] (first compound max 1 µM, 7x7, partner max 3 µM)
3. NC1(C(=O)N[C@@H](CCO)c2ccc(Cl)cc2)CCN(c2ncnc3[nH]ccc23)CC1 [Capivasertib] + Cn1cnc2c(F)c(Nc3ccc(Br)cc3Cl)c(C(=O)NOCCO)cc21 [Selumetinib] (first compound max 10 µM, 7x7, partner max 10 µM)

Result block:
[-0.0271, -0.0211, 0.063]
